B1: KRT34 (parent)
chain: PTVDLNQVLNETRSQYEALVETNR

- Variants of: B1
- Test Method Notes: protein stability index of a GFP-peptide fusion (GPS, HEK-293T) (PSI 1-6); higher = more stable;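 note: lentivirally expressed fusions sorted by FACS into six bins by GFP to DsRed ratio, PSI derived from sequencing read proportions per bin multiplied by bin number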
- Condition Details: c terminus: a fixed tail appended

- Mutant Name: "R13L"
  protein stability index: 3.34
- Mutant Name: "V3C"
  protein stability index: 4.07
- Mutant Name: "Q7M"
  protein stability index: 3.62
- Mutant Name: "L19D"
  protein stability index: 5.03
- Mutant Name: "P1G"
  protein stability index: 3.5
- Mutant Name: "A18C"
  protein stability index: 4.01
- Mutant Name: "E17I"
  protein stability index: 2.71
- Mutant Name: "T22C"
  protein stability index: 3.62
- Mutant Name: "E21M"
  protein stability index: 3.92
- Mutant Name: "N10V"
  protein stability index: 3.21
- Mutant Name: "T12V"
  protein stability index: 3.04
- Mutant Name: "N23R"
  protein stability index: 4.11
- Mutant Name: "N10P"
  protein stability index: 4.55
- Mutant Name: "Q15G"
  protein stability index: 4.19
- Mutant Name: "N23A"
  protein stability index: 4.03
- Mutant Name: "D4N"
  protein stability index: 4.38
- Mutant Name: "V8E"
  protein stability index: 4.4
- Mutant Name: "A18E"
  protein stability index: 3.69
- Mutant Name: "V20A"
  protein stability index: 2.68
- Mutant Name: "T12I"
  protein stability index: 1.84
- Mutant Name: "V3M"
  protein stability index: 2.45
- Mutant Name: "P1N"
  protein stability index: 3.21
